Target protein (sequence): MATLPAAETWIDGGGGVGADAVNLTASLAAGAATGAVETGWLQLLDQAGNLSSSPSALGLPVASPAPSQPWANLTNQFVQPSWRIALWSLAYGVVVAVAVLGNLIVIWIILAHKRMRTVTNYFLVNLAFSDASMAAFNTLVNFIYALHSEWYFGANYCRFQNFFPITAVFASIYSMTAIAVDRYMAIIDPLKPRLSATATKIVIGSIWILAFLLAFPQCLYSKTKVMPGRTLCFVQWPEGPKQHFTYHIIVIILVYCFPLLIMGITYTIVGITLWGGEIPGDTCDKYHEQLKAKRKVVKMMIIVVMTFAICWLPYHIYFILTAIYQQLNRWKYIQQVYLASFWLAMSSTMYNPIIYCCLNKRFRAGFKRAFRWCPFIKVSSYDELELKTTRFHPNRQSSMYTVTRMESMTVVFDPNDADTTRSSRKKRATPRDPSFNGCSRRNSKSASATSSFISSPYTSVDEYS
pKi: −log10 of the molar value.

GIVEN SMILES: C[C@@H](OC[C@@]1(c2ccccc2)CC[C@](C#N)(n2cn[nH]c2=O)CN1)c1cc(C(F)(F)F)cc(C(F)(F)F)c1
pKi: < 6.00

* * *

TARGET OF ASSAY: NK1 receptor (Meriones unguiculatus, UniProt Q5DUB1)
Sequence (Q5DUB1 whole entry): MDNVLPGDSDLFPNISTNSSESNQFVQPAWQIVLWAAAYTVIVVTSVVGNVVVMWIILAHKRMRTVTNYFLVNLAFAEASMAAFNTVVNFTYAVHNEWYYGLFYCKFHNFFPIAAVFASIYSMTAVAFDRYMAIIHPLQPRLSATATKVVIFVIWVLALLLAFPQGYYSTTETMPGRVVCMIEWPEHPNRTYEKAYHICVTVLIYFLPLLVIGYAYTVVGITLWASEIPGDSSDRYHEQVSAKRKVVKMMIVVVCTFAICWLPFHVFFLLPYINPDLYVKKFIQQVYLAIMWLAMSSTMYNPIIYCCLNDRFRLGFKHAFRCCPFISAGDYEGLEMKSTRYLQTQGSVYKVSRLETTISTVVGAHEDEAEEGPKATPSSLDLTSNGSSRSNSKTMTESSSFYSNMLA
EXPERIMENT SUMMARY: NK1 receptor radioligand binding, gerbil
CONDITION: no unit, Ki in nM

MOLECULE: C[C@@H](OC[C@@]1(c2ccccc2)CC[C@](C#N)(n2cn[nH]c2=O)CN1)c1cc(C(F)(F)F)cc(C(F)(F)F)c1 [Compound 42]
Ki (nM): 0.2

* * *

EXPERIMENT SUMMARY: in vivo
CONDITION: female, rat
RESULT TYPE: NOAEL

GIVEN SMILES: C[C@@H](OC[C@@]1(c2ccccc2)CC[C@](C#N)(n2cn[nH]c2=O)CN1)c1cc(C(F)(F)F)cc(C(F)(F)F)c1
RESULT: ≥ 12.5 mg/kg

* * *

EXPERIMENT SUMMARY: Rising single-dose safety, tolerability and pharmacokinetics study in healthy human volunteers
Assay type: in vivo
CONDITION: human, plasma, oral; each dosage strength 10, 25, 50 mg
RESULT TYPE: Tmax

MOLECULE: C[C@@H](OC[C@@]1(c2ccccc2)CC[C@](C#N)(n2cn[nH]c2=O)CN1)c1cc(C(F)(F)F)cc(C(F)(F)F)c1 [Compound 42]
RESULT: 0 to 4 h

* * *

EXPERIMENT SUMMARY: Rising single-dose safety, tolerability and pharmacokinetics study in healthy human volunteers
Type: in vivo
CONDITION: human, plasma, po, 50 mg, 50 mg fed, single oral dose, n = 4; read-out: AUC(l) Mean/% CV

GIVEN SMILES: C[C@@H](OC[C@@]1(c2ccccc2)CC[C@](C#N)(n2cn[nH]c2=O)CN1)c1cc(C(F)(F)F)cc(C(F)(F)F)c1
AUC / ng·h/mL: 97000

* * *

EXPERIMENT SUMMARY: Rising single-dose safety, tolerability and pharmacokinetics study in healthy human volunteers
Type: in vivo
CONDITION: human, plasma, po, 25 mg, 25 mg capsule, single oral dose, n = 4; read-out: AUC(l) Mean/% CV

GIVEN SMILES: C[C@@H](OC[C@@]1(c2ccccc2)CC[C@](C#N)(n2cn[nH]c2=O)CN1)c1cc(C(F)(F)F)cc(C(F)(F)F)c1
AUC (ng·h/mL): 42900

* * *

EXPERIMENT SUMMARY: Rising single-dose safety, tolerability and pharmacokinetics study in healthy human volunteers
Type: in vivo
CONDITION: human, plasma, po, 25 mg, 25 mg solution, single oral dose, n = 4; read-out: AUC(l) Mean/% CV
RESULT TYPE: AUC (ng·h/mL)

GIVEN SMILES: C[C@@H](OC[C@@]1(c2ccccc2)CC[C@](C#N)(n2cn[nH]c2=O)CN1)c1cc(C(F)(F)F)cc(C(F)(F)F)c1
MEASUREMENT UNIT: ng·h/mL
RESULT NUMBER: 52600

* * *

EXPERIMENT SUMMARY: in vivo
CONDITION: male, cynomolgus monkey

GIVEN SMILES: C[C@@H](OC[C@@]1(c2ccccc2)CC[C@](C#N)(n2cn[nH]c2=O)CN1)c1cc(C(F)(F)F)cc(C(F)(F)F)c1
NOAEL: ≥ 10 mg/kg

* * *

EXPERIMENT SUMMARY: Rising single-dose safety, tolerability and pharmacokinetics study in healthy human volunteers
Type: in vivo
CONDITION: human, plasma, po, 25 mg, 25 mg capsule, single oral dose, n = 5; read-out: AUC(tf) Mean/% CV

COMPOUND: C[C@@H](OC[C@@]1(c2ccccc2)CC[C@](C#N)(n2cn[nH]c2=O)CN1)c1cc(C(F)(F)F)cc(C(F)(F)F)c1 [Compound 42]
AUC, ng·h/mL: 25700

* * *

EXPERIMENT SUMMARY: Rising single-dose safety, tolerability and pharmacokinetics study in healthy human volunteers
Assay type: in vivo
CONDITION: human, plasma, po, 25 mg, 25 mg capsule, single oral dose, n = 4; read-out: T1/2 Mean/% CV (converted)
Method: A randomized, placebo-controlled, third party blind (within dose level), rising, single-dose escalation study to evaluate the safety, tolerability and pharmacokinetics of SCH900978 in healthy human volunteers was conducted and completed. […] Six subjects received placebo. […] Food had no effect on the oral bioavailability of SCH900978. […] Tmax occurred within 0-4 hours at each dosage strength. […]
RESULT TYPE: half-life (h)

GIVEN SMILES: C[C@@H](OC[C@@]1(c2ccccc2)CC[C@](C#N)(n2cn[nH]c2=O)CN1)c1cc(C(F)(F)F)cc(C(F)(F)F)c1
RESULT NUMBER: 238

* * *

TARGET OF ASSAY: NK1 receptors (Rattus norvegicus, UniProt P14600)
Sequence (P14600 whole entry): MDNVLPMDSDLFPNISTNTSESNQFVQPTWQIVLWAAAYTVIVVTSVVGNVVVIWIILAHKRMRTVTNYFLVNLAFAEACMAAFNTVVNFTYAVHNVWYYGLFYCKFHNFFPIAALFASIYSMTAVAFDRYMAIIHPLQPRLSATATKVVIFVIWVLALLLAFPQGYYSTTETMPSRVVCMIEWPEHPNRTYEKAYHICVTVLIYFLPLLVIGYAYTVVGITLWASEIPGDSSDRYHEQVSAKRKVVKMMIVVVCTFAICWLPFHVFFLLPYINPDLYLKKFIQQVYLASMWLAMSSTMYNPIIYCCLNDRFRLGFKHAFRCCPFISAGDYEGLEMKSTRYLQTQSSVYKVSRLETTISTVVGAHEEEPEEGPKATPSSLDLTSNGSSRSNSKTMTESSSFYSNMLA
EXPERIMENT SUMMARY: NK1 receptor radioligand binding, rat
CONDITION: no unit, Ki in nM
RESULT TYPE: Ki (nM)

GIVEN SMILES: C[C@@H](OC[C@@]1(c2ccccc2)CC[C@](C#N)(n2cn[nH]c2=O)CN1)c1cc(C(F)(F)F)cc(C(F)(F)F)c1
TARGET OF ASSAY: NK1 receptors (Rattus norvegicus, UniProt P14600)
RESULT NUMBER: 4.62

* * *

TARGET OF ASSAY: NK1 receptors (Mus musculus, UniProt P30548)
Sequence (P30548 whole entry): as the sequence (P14600 whole entry) above, with M7V, I15T, V266I, E367D counted along it
EXPERIMENT SUMMARY: NK1 receptor radioligand binding, mouse
CONDITION: no unit, Ki in nM
RESULT TYPE: Ki (nM)

GIVEN SMILES: C[C@@H](OC[C@@]1(c2ccccc2)CC[C@](C#N)(n2cn[nH]c2=O)CN1)c1cc(C(F)(F)F)cc(C(F)(F)F)c1
TARGET OF ASSAY: NK1 receptors (Mus musculus, UniProt P30548)
RESULT TYPE: Ki
MEASUREMENT UNIT: nM
RESULT NUMBER: 0.76

* * *

EXPERIMENT SUMMARY: Solubility
Type: physicochemical
CONDITION: pH 7, aqueous buffer
RESULT TYPE: solubility (µg/mL)

COMPOUND: C[C@@H](OC[C@@]1(c2ccccc2)CC[C@](C#N)(n2cn[nH]c2=O)CN1)c1cc(C(F)(F)F)cc(C(F)(F)F)c1 [Compound 42]
MEASUREMENT UNIT: µg/mL
RESULT NUMBER: 1.8

* * *

Protein target, amino acids: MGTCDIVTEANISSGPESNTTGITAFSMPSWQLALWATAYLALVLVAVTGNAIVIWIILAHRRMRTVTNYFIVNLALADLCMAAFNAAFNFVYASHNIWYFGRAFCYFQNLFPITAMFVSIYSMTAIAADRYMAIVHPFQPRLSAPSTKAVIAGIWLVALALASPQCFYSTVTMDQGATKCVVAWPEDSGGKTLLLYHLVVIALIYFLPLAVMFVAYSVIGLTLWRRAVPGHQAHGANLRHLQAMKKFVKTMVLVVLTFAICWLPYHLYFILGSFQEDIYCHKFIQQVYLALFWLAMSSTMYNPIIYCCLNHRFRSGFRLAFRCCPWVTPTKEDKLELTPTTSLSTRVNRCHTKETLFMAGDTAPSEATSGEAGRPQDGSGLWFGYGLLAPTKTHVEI
pKi: −log10 of the molar value.
RESULT TYPE: pKi

GIVEN SMILES: C[C@@H](OC[C@@]1(c2ccccc2)CC[C@](C#N)(n2cn[nH]c2=O)CN1)c1cc(C(F)(F)F)cc(C(F)(F)F)c1
RESULT TYPE: pKi
RESULT: < 6.00

* * *

EXPERIMENT SUMMARY: Rising single-dose safety, tolerability and pharmacokinetics study in healthy human volunteers
Format: in vivo
CONDITION: human, plasma, po, 50 mg, 50 mg fed, single oral dose, n = 4; read-out: T1/2 Mean/% CV (converted)

MOLECULE: C[C@@H](OC[C@@]1(c2ccccc2)CC[C@](C#N)(n2cn[nH]c2=O)CN1)c1cc(C(F)(F)F)cc(C(F)(F)F)c1 [Compound 42]
half-life: 13.2 days

Reference source for all entries: patent US20180153872A1
